# Tested on: NCI-H23 lung
# assay_overview: NCI-60 one-dose screen, 48 h (100 = growth as untreated, 0 = no growth, -100 = all killed)
# experimental_parameters: 10 µM
About 83,000 compounds went through this panel and 20% of them were active in at least one assay; those are over-represented in the sample as a whole.
measured_metric: growth (%)

>>> reported_result("O=C(/C=C/Nc1ccc(F)cc1F)c1ccc2c(c1)Nc1ccccc1S2")
70.3
>>> reported_result("CC(=O)Nc1ccc(-c2cn(-c3cccc(C(=O)Nc4cc(CN5CCOCC5)cc(C(F)(F)F)c4)c3)nn2)cn1")
-92.6
>>> reported_result("C=C(C)[C@@H]1CC[C@]2(COP(=O)(OCC)OCC)CC[C@]3(C)[C@H](CC[C@@H]4[C@@](C)(CCCN)[C@H](C(=C)C)CC[C@]43C)[C@@H]12")
23.3
>>> reported_result("N#C/C(=C\\c1ccc(N(c2ccccc2)c2ccccc2)cc1)C(N)=O")
55.9
>>> reported_result("Cc1ccc(S(=O)(=O)c2nc(-c3ccccc3)oc2S(=O)(=O)CC(=O)N2CCCC2)cc1")
-77.9
>>> reported_result("O=c1[nH]n(C(=S)N/N=C/c2ccc(F)cc2)c(=O)c2ccccc12")
75.3
>>> reported_result("Cc1ccc(F)cc1N/C=c1\\s/c(=C(\\C#N)C(=O)Nc2ccccc2)n(-c2ccccc2)c1=O")
58
>>> reported_result("CCCS(=O)(=O)c1oc(-c2ccc(F)cc2)nc1S(=O)(=O)c1ccc(F)cc1")
-42.1
>>> reported_result("Cc1nn(-c2ccccc2)c2ncn(CC(=O)N/N=C/c3c[nH]c4ccccc34)c(=O)c12")
95.4
>>> reported_result("COc1ccccc1[C@H]1C(C(=O)c2ccc(Cl)cc2)C2(N[C@@H]1c1ccccc1)C(=O)Nc1ccccc12 (stereo not given in full)")
-55.3
>>> reported_result("COc1ccc(NC(=O)Cn2c(/C=C/c3ccc(N(C)C)cc3)nc3ccccc3c2=O)cc1")
49.8
>>> reported_result("CC1(C)CC[C@]2(C(=O)NCCCNCCCCNCCCN)CC[C@]3(C)C(=CC[C@@H]4[C@@]5(C)Cc6c([nH]c7ccccc67)C(C)(C)[C@@H]5CC[C@]43C)[C@H]2C1")
83.7
>>> reported_result("C=C1CCC2C3(C)COC(c4cccc(F)c4)OC3CCC2(C)C1CC(O)C1=CCOC1=O (stereo not given)")
82.9
>>> reported_result("C=CCn1c(SCC(=O)Nc2ccc(C(=O)/C=C/c3ccccc3)cc2)nnc1-c1c[nH]c2ccccc12")
68.3
>>> reported_result("COc1ccc(/C(CSc2nnc(-c3c[nH]c4ccccc34)n2-c2ccccc2)=N/O)cc1")
41.6
>>> reported_result("OCCCNc1oc(-c2ccccc2)nc1[P+](c1ccccc1)(c1ccccc1)c1ccccc1")
-1.07
>>> reported_result("N#Cc1ccc(-c2nn(-c3ccc(C(=O)O)cc3)cc2CNc2ccc(Cl)cc2)cc1")
73.3
>>> reported_result("CCOC(=O)c1c(CSc2ccccc2)n(C)c2cc(CN(C)C)c(O)c(CN(C)C)c12")
33.8
>>> reported_result("O=C(CS(=O)(=O)c1oc(-c2ccc(Cl)cc2)nc1S(=O)(=O)c1ccc(Cl)cc1)N1CCOCC1")
48.9
>>> reported_result("O=C(CSc1nnc(-c2ccc3nc(-c4ccc(Cl)cc4)[nH]c3c2)o1)Nc1ccc(Cl)cc1")
-73.9
>>> reported_result("Cc1ccc(-c2nc(Nc3ccc(C)c(S(N)(=O)=O)c3)c3ccccc3n2)cc1")
79
>>> reported_result("O=[N+]([O-])c1ccc(-c2nc(-c3ccccc3)c(-c3ccccc3)n2-c2ccc(S(=O)(=O)Nc3ncccn3)cc2)cc1")
23.9
>>> reported_result("COc1ccc(NC(=O)Nc2ccc(OCC(=O)N=Nc3c(O)[nH]c4ccc([N+](=O)[O-])cc34)cc2)cc1")
59.5
>>> reported_result("COc1ccc2[nH]cc(/C=N/Nc3cccc(Cl)n3)c2c1")
64.2
>>> reported_result("Cc1noc2c(Cc3ccc([N+](=O)[O-])cc3)nn(CC(=O)N/N=C/c3ccc(Br)cc3)c(=O)c12")
87.7
>>> reported_result("O=C(c1ccc(O)cc1)C1[C@H](c2ccc(Br)cc2)[C@@H](c2ccccc2)NC12C(=O)Nc1ccccc12 (stereo not given in full)")
7.68
>>> reported_result("O=C(NO)c1ccc(CNC(=O)[C@H]2Cc3c([nH]c4ccccc34)[C@H](c3ccccc3)N2)cc1")
34
>>> reported_result("CC(=O)NCC1=C(C)C=C2C(=O)[C@](C)(O)C3(CC3)C(C)=C21")
-76.6
>>> reported_result("O=C(CSc1nnc(-c2c[nH]c3ccccc23)n1-c1ccccc1)Nc1ccc(C(=O)/C=C/c2ccc(Br)cc2)cc1")
81.3
>>> reported_result("COc1cc(Cn2c(C(F)(F)F)cc3c(Cl)ncnc32)ccn1")
-66.6
>>> reported_result("O=C1N/C(=N\\c2nccs2)S/C1=C\\c1cccs1")
38.1
>>> reported_result("C=C(c1ccc(OC)c(N)c1)c1cc(C)nc2ccccc12")
12.3
>>> reported_result("Cc1ccc(-c2nc(Nc3ccc(S(N)(=O)=O)cc3)c3ccccc3n2)cc1")
71.2
>>> reported_result("CC1(C)CC[C@]2(C(=O)O)CC[C@]3(C)C(=CC[C@@H]4[C@@]5(C)C/C(=C/c6ccncc6)[C@H](O)C(C)(C)[C@@H]5CC[C@]43C)[C@@H]2C1")
37.6
>>> reported_result("N#Cc1c(NC(=O)c2cccc(C(F)(F)F)c2)sc2c1CCC(O)=C2")
22.3
